test: Cell Proliferation Assay against the TMD8 Cell Line (Caspase readout at 8 hrs) (AID 651713); details: TMD8 lymphoma cells, caspase activation luminescence; series mostly up to 46.1 µM
Results filed as inconclusive are left out. Active and inactive are the calls of the source. Calls follow the shape of the dose curve; as a rule, active = well fitted activation curve with a large enough effect; inconclusive = small, poorly fitted or top-dose-only effect, or another doubt; inactive = no such curve, though single readings can be large or run the other way.
// allowed return values: active, inactive

[in] Recorded test outcome, item Cc1ccc(C(=O)Nc2ccc(CN3CCN(C)CC3)c(C(F)(F)F)c2)cc1C#Cc1cnc2cccnn12
[out] active

[in] # lookup: test call for CCC(=C(c1ccccc1)c1ccc(OCCN(C)C)cc1)c1ccccc1
[out] active

[in] // param item: CC1=C(CO)C(=O)O[C@@H]([C@@H](C)[C@H]2CC[C@H]3[C@@H]4C[C@H]5O[C@]56[C@@H](O)C=CC(=O)[C@]6(C)[C@@H]4CC[C@]23C)C1 ; yields the recorded call
[out] inactive

[in] What did the test return for CN1CCC(CNc2ccc3ncc(-c4cccc(OC(F)(F)F)c4)n3n2)CC1 ?
[out] active

[in] Which outcome did this test record for the molecule CCC[C@H](NC(=O)C(C#N)=Cc1cccc(Br)n1)c1ccccc1 ?
[out] active

---

experiment: Quantitative High-Throughput drug screen in 47 multiple myeloma cell lines against the NCATS MIPE library collection: OPM2_DSMZ cell viability assay (AID 1919872); conditions: OPM2 myeloma viability, CellTiter-Glo ATP luminescence, 48 h; series mostly up to 45.8 µM; also: nearly all actives have a fitted effect of over 30% in size
Results filed as inconclusive are left out. The source made the active and inactive calls. The call rests on the fitted dose curve; in most records, active means well fitted cell-killing curve with a large enough effect; inconclusive means small, poorly fitted or top-dose-only effect, or effect the other way; inactive means no such curve, though single readings can be large or run the other way.
Field 'call' accepts active, inactive

[in] Could you kindly confirm the outcome this assay logged for CC[C@@H]1C(=O)N(C)c2cnc(Nc3ccc(C(=O)NC4CCC(N5CCN(CC6CC6)CC5)CC4)cc3OC)nc2N1C(C)C (some centres undefined) ?
[out] active

[in] Test call, this molecule: COc1cc2nccc(Oc3ccc(NC(=O)C4(C(=O)Nc5ccc(F)cc5)CC4)cc3)c2cc1OC
[out] active

[in] Field: outcome | Entry: Cc1nc(Nc2n[nH]c3c2CN(C(=O)N[C@H](CN(C)C)c2ccccc2)C3(C)C)c2sccc2n1
[out] active

[in] Please share the test call associated with O=C1CCC[C@@H]2[C@H]3CCC[N+]4([O-])CCC[C@@H](CN12)[C@@H]34 (some centres undefined) .
[out] inactive

[in] What did the test return for CN1CCN(c2cc(C(=O)Nc3ccc4c(c3)-c3c(c(C(N)=O)nn3-c3ccc(F)cc3)CC4)c(Cl)cn2)CC1 ?
[out] active

[in] // param item: Cc1ccc(C(N)=O)cc1Nc1nccc(-c2cn(C(C)C)c3cnccc23)n1 ; yields the recorded call
[out] active

[in] Fill in: this test's call for O=C(C=Cc1cccc(S(=O)(=O)Nc2ccccc2)c1)NO is ___
[out] active

[in] Lab log entry: O=C(CCCCCCNC(=O)c1cnc(N(c2ccccc2)c2ccccc2)nc1)NO — outcome as called in the assay?
[out] active

[in] Given CCN1CCN(CC(=O)Nc2ccc(-c3cccc4c(=O)cc(N5CCOCC5)oc34)c3sc4ccccc4c23)CC1 , state the outcome it received in this test.
[out] active

---

experiment: Quantitative High-Throughput drug screen in 47 multiple myeloma cell lines against the NCATS MIPE library collection: KMS34_JCRB cell viability assay (AID 1918985); details: KMS34 myeloma viability, CellTiter-Glo ATP luminescence, 48 h; series mostly up to 45.8 µM; also: nearly all actives have a fitted effect of over 40% in size
Records with an inconclusive call do not appear. Calls of active or inactive are those of the source. The call rests on the fitted dose curve; in most records, active means well fitted cell-killing curve with a large enough effect; inconclusive means small, poorly fitted or top-dose-only effect, or effect the other way; inactive means no such curve, though single readings can be large or run the other way.
# output must be one of active, inactive

[in] Record lookup: outcome of this test for NC1(Cc2ccc(Cl)cc2)CCN(c2ncnc3[nH]ccc23)CC1 ?
[out] active

[in] Please share the test call associated with COC(=O)Nc1nc2ccc(C(=O)c3ccc(F)cc3)cc2[nH]1 .
[out] active

[in] Which outcome did this test record for the compound CC(C)=CCCC(C)=CCCC(C)=CCSc1ccccc1C(=O)O ?
[out] active

[in] Look up the recorded call for COc1cccc2nc(-c3cccs3)nc(NN3C(=O)C=C(C)C3=O)c12 in this test.
[out] active

[in] Fill in: this test's call for COC(=O)C[C@](O)(CCCC(C)(C)O)C(=O)O[C@@H]1C(OC)=C[C@]23CCCN2CCc2cc4c(cc2[C@H]13)OCO4 is ___
[out] active

[in] Recorded test outcome, item CCOC(=O)C1=C(C)NC2=C(C(=O)CC(C)(C)C2)C1c1ccc(-c2ccccc2)cc1 (centres undefined)
[out] active

[in] What is the recorded call for this compound in the test? CC[C@H](CO)Nc1nc(NCc2ccccc2)c2ncn(C(C)C)c2n1
[out] active

[in] Could you please tell me the result logged for CNC(=O)c1ccc(N2C(=S)N(c3cnc(C#N)c(C(F)(F)F)c3)C(=O)C23CCC3)cc1F in this assay?
[out] inactive

[in] Per the assay record, what outcome was assigned to O=C(O)[C@H](Cc1c[nH]c2ccccc12)N1C(=O)c2ccccc2C1=O ?
[out] inactive

[in] Hi, sorry to bother you, what did the test record for COc1cc(-c2nn(C3CCC(N4CCN(C(C)=O)CC4)CC3)c3ncnc(N)c23)ccc1NC(=O)c1cc2ccccc2n1C (centres undefined) ?
[out] active

[in] Record lookup: outcome of this test for CC(C)c1cnn2c(NCc3ccccc3)cc(N[C@@H](CO)[C@H](O)CO)nc12 ?
[out] active

[in] Test call, this compound: COc1cc2c(Oc3ccc(NC(=O)C4(C(=O)Nc5ccc(F)cc5)CC4)cc3F)ccnc2cc1OCCCN1CCOCC1
[out] active

[in] In this assay, the call recorded for CN(C)Cc1c(C(=O)NCCOc2ccc(C(=O)NO)cc2)oc2ccccc12 was what?
[out] active

[in] Assay result, entry CNC(=O)c1ccccc1Nc1nc(Nc2ccc(N3CCOCC3)cc2OC)ncc1Cl — outcome?
[out] active

[in] Look up the recorded call for CN(C)CC=CC(=O)Nc1cc2c(Nc3ccc(F)c(Cl)c3)ncnc2cc1O[C@H]1CCOC1 in this test.
[out] active

[in] Assay result, entry CC(C)c1cc(-c2n[nH]c(=O)n2-c2ccc3c(ccn3C)c2)c(O)cc1O — outcome?
[out] active

[in] Test call for this compound, please: CN1CC[C@@H](c2c(O)cc(O)c3c(=O)cc(-c4ccccc4Cl)oc23)[C@@H](O)C1
[out] active

[in] Which outcome was assigned to CC1(C)CC(=O)c2c(C(F)(F)F)nn(-c3ccc(C(N)=O)c(NC4CCC(OC(=O)CN)CC4)c3)c2C1 (centres undefined) in this test?
[out] active

[in] Please let me know the test result on file for CN1CCC(CNc2ccc3ncc(-c4cccc(OC(F)(F)F)c4)n3n2)CC1 .
[out] active
